For each record, write down the corresponding kon.
# Tested Target: T1, integrin αvβ3, purified from human placenta (human, UniProt P06756 31-1048; P05106 27-788)
# T1 construct: mature; Native heterodimer, immobilized on ELISA plates or on the BIAcore chip; biotinylated in capture lift and capture ELISA screens; also called αvβ3 receptor; vitronectin receptor
# T1 sequence (P06756 31-1048, form in doubt, chain 1 of 2): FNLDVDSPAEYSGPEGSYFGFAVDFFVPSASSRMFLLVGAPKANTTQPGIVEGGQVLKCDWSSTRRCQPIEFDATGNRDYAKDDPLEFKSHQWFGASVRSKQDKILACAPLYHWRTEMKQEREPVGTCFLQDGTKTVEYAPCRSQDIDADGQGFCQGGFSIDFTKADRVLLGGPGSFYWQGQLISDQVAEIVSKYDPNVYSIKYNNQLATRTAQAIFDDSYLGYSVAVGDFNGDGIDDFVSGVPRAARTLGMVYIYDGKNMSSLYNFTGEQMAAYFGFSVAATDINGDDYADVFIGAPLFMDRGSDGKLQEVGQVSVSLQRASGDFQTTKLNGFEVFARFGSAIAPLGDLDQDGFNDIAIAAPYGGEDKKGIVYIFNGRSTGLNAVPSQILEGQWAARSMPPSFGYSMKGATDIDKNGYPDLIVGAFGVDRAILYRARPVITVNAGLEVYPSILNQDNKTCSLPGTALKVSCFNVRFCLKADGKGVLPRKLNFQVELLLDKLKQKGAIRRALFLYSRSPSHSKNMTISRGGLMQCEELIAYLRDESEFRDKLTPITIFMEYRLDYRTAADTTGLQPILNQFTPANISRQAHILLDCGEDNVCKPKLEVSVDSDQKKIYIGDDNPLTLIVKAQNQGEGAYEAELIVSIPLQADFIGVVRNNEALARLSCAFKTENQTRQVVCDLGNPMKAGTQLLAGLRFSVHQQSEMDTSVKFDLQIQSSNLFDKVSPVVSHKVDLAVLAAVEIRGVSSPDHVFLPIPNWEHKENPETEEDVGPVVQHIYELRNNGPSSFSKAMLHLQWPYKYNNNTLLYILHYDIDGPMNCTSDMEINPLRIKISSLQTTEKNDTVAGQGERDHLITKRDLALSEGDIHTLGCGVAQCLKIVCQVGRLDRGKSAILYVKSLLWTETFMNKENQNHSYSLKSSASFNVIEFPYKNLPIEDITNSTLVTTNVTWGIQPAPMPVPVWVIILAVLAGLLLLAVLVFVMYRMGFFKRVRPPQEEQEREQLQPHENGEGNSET
# T1 sequence (P05106 27-788, form in doubt, chain 2 of 2): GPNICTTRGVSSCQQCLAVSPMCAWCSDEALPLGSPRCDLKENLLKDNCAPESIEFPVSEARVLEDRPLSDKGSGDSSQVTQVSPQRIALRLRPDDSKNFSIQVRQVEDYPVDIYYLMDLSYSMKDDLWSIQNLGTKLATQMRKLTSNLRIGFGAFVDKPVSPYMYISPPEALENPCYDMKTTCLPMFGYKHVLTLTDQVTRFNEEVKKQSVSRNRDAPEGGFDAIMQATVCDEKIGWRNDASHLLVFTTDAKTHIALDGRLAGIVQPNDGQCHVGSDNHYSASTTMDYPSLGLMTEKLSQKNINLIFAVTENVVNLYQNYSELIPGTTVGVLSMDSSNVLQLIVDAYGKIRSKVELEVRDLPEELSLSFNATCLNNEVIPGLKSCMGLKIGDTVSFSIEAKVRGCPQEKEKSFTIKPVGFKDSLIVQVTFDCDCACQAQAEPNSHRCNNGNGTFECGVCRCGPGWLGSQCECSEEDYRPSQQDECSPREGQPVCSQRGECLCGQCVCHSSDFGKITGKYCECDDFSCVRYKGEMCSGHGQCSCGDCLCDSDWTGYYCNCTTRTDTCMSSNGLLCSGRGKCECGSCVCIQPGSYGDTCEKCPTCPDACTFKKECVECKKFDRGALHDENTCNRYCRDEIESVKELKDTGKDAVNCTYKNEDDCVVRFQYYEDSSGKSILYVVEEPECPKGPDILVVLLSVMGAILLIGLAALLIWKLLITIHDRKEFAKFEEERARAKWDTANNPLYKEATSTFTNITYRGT
# Assay Text: SPR (BIAcore), purified Fab over immobilized αvβ3
// unit must come after the numeric part

Binder	kon
LM609 grafted antibody variant F32 (Fab, V domains shown, Fab) VH: QVQLVESGGGVVQPGRSLRLSCAASGFTFSSYDMSWVRQAPGKGLEWVAKVSSGGGSTYYLDTVQGRFTISRDNSKNTLYLQMNSLRAEDTAVYYCARHNYGSFAYWGQGTTVTVSS VL: EIVLTQSPATLSLSPGERATLSCQASQSISNFLHWYQQRPGQAPRLLIRYRSQSISGIPARFSGSGSGTDFTLTISSLEPEDFAVYYCQQSGSWPHTFGGGTKVEIK	167000 M⁻¹ s⁻¹

kon measured on LM609 grafted antibody variant P60 (Fab, V domains shown, Fab) VH: QVQLVESGGGVVQPGRSLRLSCAASGFTFSSYDMSWVRQAPGKGLEWVAKVSSGGGSTYYPDTVQGRFTISRDNSKNTLYLQMNSLRAEDTAVYYCARHNYGSFAYWGQGTTVTVSS VL: EIVLTQSPATLSLSPGERATLSCQASQSISNHLHWYQQRPGQAPRLLIRYRSQSISGIPARFSGSGSGTDFTLTISSLEPEDFAVYYCQQSGSWPHTFGGGTKVEIK = 318000 M⁻¹ s⁻¹
